Reference for the values: PubChem BioAssay (NCI)

test system: IGROV1 ovarian; assay: NCI-60 one-dose screen, 48 h (100 = growth as untreated, 0 = no growth, -100 = all killed); conditions: 10 µM unless noted
The panel holds about 83,000 compounds, 20% with a hit somewhere; the sample as a whole holds those more often.
Hi, to clarify the labels: T covers growth from 80% upward, F covers anything below 80%.

{"MOLECULE": "COC(=O)/C(CCC=C(C)C)=C1\\[C@@H](OC(C)=O)C[C@@]2(C)[C@H]1CC(=O)N[C@H]1[C@@]3(C)CCNC(=O)[C@@H](C)[C@@H]3CC[C@@]12C", "ASSIGNED_CATEGORY": "T"}
{"MOLECULE": "COc1cc(/C(C#N)=C/c2nc3c(N4CCOCC4)nc(Cl)nc3n2C)cc(OC)c1OC", "ASSIGNED_CATEGORY": "F"}
{"MOLECULE": "NCCOc1ccccc1/C=C1\\c2ccccc2-c2ccc([N+](=O)[O-])cc21", "ASSIGNED_CATEGORY": "F"}
{"MOLECULE": "CNCCNc1nc2ccccc2c2c(=O)c3cc(OC)ccc3sc12", "ASSIGNED_CATEGORY": "F"}
{"MOLECULE": "Nc1no[n+]([O-])c1-c1nnc2c(n1)-c1ccccc1C2=O", "ASSIGNED_CATEGORY": "T"}
{"MOLECULE": "COc1cc(C(C)n2cc(-c3ccccc3)nn2)ccc1OC1CCCCC1 (stereo not drawn)", "ASSIGNED_CATEGORY": "F"}
{"MOLECULE": "CC[C@]1(O)C[C@@H]2CN(CCc3c([nH]c4ccccc34)[C@@](C(=O)OC)(c3cc4c(cc3OC)N(C)[C@H]3[C@@](O)(C(=O)OC)[C@H](OC(C)=O)[C@]5(CC)C=CCN6CC[C@]43[C@@H]65)C2)C1", "ASSIGNED_CATEGORY": "F"}
